TGT: PscD (PscD-SD, Cache sensor domain of chemoreceptor PscD) (Pseudomonas syringae, UniProt A0ABY1U976)
Construct: gene CFBP3846_03581; sensor domain, Gln31-Trp188, N-terminal His6 tag
Sequence (A0ABY1U976 31-188): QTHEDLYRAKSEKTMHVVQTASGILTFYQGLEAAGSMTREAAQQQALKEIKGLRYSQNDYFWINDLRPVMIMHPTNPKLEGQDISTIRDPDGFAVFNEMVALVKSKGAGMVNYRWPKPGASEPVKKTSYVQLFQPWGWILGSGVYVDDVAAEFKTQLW
Set-up: fluorescence thermal shift (SYPRO Orange) screen of Biolog PM1/PM2 compounds, delta Tm
CONDITION PARAMETERS: Biolog plate compound, exact concentration unknown; binder
PARAMETER MEASURED: Δ Tm (°C)
Unit °C implied. Number only.

Problem: Entry O=C(O)C(=O)O [Oxalic Acid] has what Δ Tm?
Result: 0.03

Problem: Entry CC(O)CC(=O)O (stereo not drawn) [β-Hydroxy Butyric Acid] has what Δ Tm?
Result: 0.03

Problem: Entry OC[C@H](O)C(O)[C@@H](O)CO [L-Arabitol] has what Δ Tm?
Result: 0.03

Problem: Entry OC[C@H]1O[C@H](OC[C@H]2O[C@H](OC[C@H]3O[C@H](O[C@]4(CO)O[C@H](CO)[C@@H](O)[C@@H]4O)[C@H](O)[C@@H](O)[C@@H]3O)[C@H](O)[C@@H](O)[C@H]2O)[C@H](O)[C@@H](O)[C@H]1O [Stachyose] has what Δ Tm?
Result: 0.05

Problem: Entry NCCCCN [Putrescine] has what Δ Tm?
Result: 0.03

Problem: Entry O=C(O)[C@]1(O)C[C@@H](O)[C@@H](O)[C@H](O)C1 [Quinic Acid] has what Δ Tm?
Result: 0.00

Problem: Entry O=C(O)c1ccccc1O [2-Hydroxy Benzoic Acid] has what Δ Tm?
Result: 0.00

Problem: Entry C[C@@H](O)[C@@H](C)O [2,3-Butanediol] has what Δ Tm?
Result: 0.05

Problem: Entry O=C(CO)[C@@H](O)[C@@H](O)[C@H](O)CO [D-Tagatose] has what Δ Tm?
Result: 0.00

Problem: Entry CC(=O)N[C@H]1[C@H]([C@H](O)[C@H](O)CO)OC(O)(C(=O)O)C[C@@H]1O (stereo partly shown) [N-Acetyl-Neuraminic Acid] has what Δ Tm?
Result: 0.08

Problem: Entry N#C[C@H](O[C@@H]1O[C@H](CO[C@@H]2O[C@H](CO)[C@@H](O)[C@H](O)[C@H]2O)[C@@H](O)[C@H](O)[C@H]1O)c1ccccc1 [Amygdalin] has what Δ Tm?
Result: 0.03

Problem: Entry CSCC[C@H](N)C(=O)O [L-Methionine] has what Δ Tm?
Result: 0.43

Problem: Entry CC(C)C[C@H](N)C(=O)O [L-Leucine] has what Δ Tm?
Result: 0.05

Problem: Entry OC[C@H]1O[C@@H]2O[C@H]3[C@H](O)[C@@H](O)[C@@H](O[C@H]4[C@H](O)[C@@H](O)[C@@H](O[C@H]5[C@H](O)[C@@H](O)[C@@H](O[C@H]6[C@H](O)[C@@H](O)[C@@H](O[C@H]7[C@H](O)[C@@H](O)[C@@H](O[C@H]8[C@H](O)[C@@H](O)[C@@H](O[C@H]1[C@H](O)[C@H]2O)O[C@@H]8CO)O[C@@H]7CO)O[C@@H]6CO)O[C@@H]5CO)O[C@@H]4CO)O[C@@H]3CO [β-Cyclodextrin] has what Δ Tm?
Result: 0.45

Problem: Entry O=C(CO)[C@@H](O)[C@H](O)[C@@H](O)C(=O)O [5-keto-D-Gluconic Acid] has what Δ Tm?
Result: 0.10

Problem: Entry O=C(CO)CO [Dihydroxyacetone] has what Δ Tm?
Result: 0.35

###

For each entry below, report its Δ Tm value.
TGT: PscD (PscD-SD, Cache sensor domain of chemoreceptor PscD) (Pseudomonas syringae, UniProt A0ABY1U976)
Construct: gene CFBP3846_03581; sensor domain, Gln31-Trp188, N-terminal His6 tag
Parameters: fluorescence thermal shift (SYPRO Orange) screen of Biolog PM1/PM2 compounds, delta Tm
CONDITION PARAMETERS: Biolog plate compound, exact concentration unknown; binder
Unit °C implied. Number only.

Problem: Entry OC[C@H]1O[C@@H]2O[C@H]3[C@H](O)[C@@H](O)[C@@H](O[C@H]4[C@H](O)[C@@H](O)[C@@H](O[C@H]5[C@H](O)[C@@H](O)[C@@H](O[C@H]6[C@H](O)[C@@H](O)[C@@H](O[C@H]7[C@H](O)[C@@H](O)[C@@H](O[C@H]1[C@H](O)[C@H]2O)O[C@@H]7CO)O[C@@H]6CO)O[C@@H]5CO)O[C@@H]4CO)O[C@@H]3CO [α-Cyclodextrin] has what Δ Tm?
Result: 0.08

Problem: Entry COC(=O)[C@@H](C)O [D-Lactic Acid Methyl Ester] has what Δ Tm?
Result: 0.00

Problem: Entry NCC(O)c1ccc(O)cc1 (racemic) [D,L-Octopamine] has what Δ Tm?
Result: 0.03

Problem: Entry CC(=O)N[C@@H](CCC(=O)O)C(=O)O [N-Acetyl-L-Glutamic Acid] has what Δ Tm?
Result: 0.08

Problem: Entry CO[C@H]1O[C@H](CO)[C@@H](O)[C@H](O)[C@@H]1O [α-Methyl-D-Mannoside] has what Δ Tm?
Result: 0.05

Problem: Entry OC[C@H]1O[C@@H]2O[C@H]3[C@H](O)[C@@H](O)[C@@H](O[C@H]4[C@H](O)[C@@H](O)[C@@H](O[C@H]5[C@H](O)[C@@H](O)[C@@H](O[C@H]6[C@H](O)[C@@H](O)[C@@H](O[C@H]7[C@H](O)[C@@H](O)[C@@H](O[C@H]8[C@H](O)[C@@H](O)[C@@H](O[C@H]9[C@H](O)[C@@H](O)[C@@H](O[C@H]1[C@H](O)[C@H]2O)O[C@@H]9CO)O[C@@H]8CO)O[C@@H]7CO)O[C@@H]6CO)O[C@@H]5CO)O[C@@H]4CO)O[C@@H]3CO [γ-Cyclodextrin] has what Δ Tm?
Result: 0.28

Problem: Entry OC[C@@H](O)[C@@H](O[C@@H]1O[C@H](CO)[C@H](O)[C@H](O)[C@H]1O)[C@H](O)[C@@H](O)CO [Lactitol] has what Δ Tm?
Result: 0.08

Problem: Entry OC[C@H]1O[C@H](OC[C@H]2O[C@H](O[C@]3(CO)O[C@H](CO)[C@@H](O)[C@@H]3O)[C@H](O)[C@@H](O)[C@@H]2O)[C@H](O)[C@@H](O)[C@H]1O [D-Raffinose] has what Δ Tm?
Result: 0.00

Problem: Entry C/C=C/C=C/C(=O)O [Sorbic Acid] has what Δ Tm?
Result: 0.65

Problem: Entry N=C(N)NCCC[C@H](N)C(=O)O [L-Arginine] has what Δ Tm?
Result: 0.03

Problem: Entry NCCCC[C@H](N)C(=O)O [L-Lysine] has what Δ Tm?
Result: 0.10

Problem: Entry C[C@H](N)C(N)=O [L-Alaninamide] has what Δ Tm?
Result: 0.08

Problem: Entry O=C(O)[C@H](O)[C@@H](O)[C@H](O)[C@H](O)CO[C@H]1O[C@H](CO)[C@H](O)[C@H](O)[C@H]1O [Melibionic Acid] has what Δ Tm?
Result: 0.08

###

TGT: PscD (PscD-SD, Cache sensor domain of chemoreceptor PscD) (Pseudomonas syringae, UniProt A0ABY1U976)
Construct: gene CFBP3846_03581; sensor domain, Gln31-Trp188, N-terminal His6 tag
Design: fluorescence thermal shift (SYPRO Orange) screen of Biolog PM1/PM2 compounds, delta Tm
CONDITION PARAMETERS: Biolog plate compound, exact concentration unknown; binder
For each entry below, report its Δ Tm value.
Unit °C implied. Number only.

Problem: Entry N[C@H]1C(O)O[C@H](CO)[C@@H](O)[C@@H]1O (stereo partly drawn) [D-Glucosamine] has what Δ Tm?
Result: -0.25

Problem: Entry N[C@@H](Cc1ccccc1)C(=O)O [L-Phenylalanine] has what Δ Tm?
Result: 0.08

Problem: Entry C[N+](C)(C)CC(O)CC(=O)[O-] (racemic) [D,L-Carnitine] has what Δ Tm?
Result: -0.02

Problem: Entry OC1OC[C@@H](O)[C@@H](O)[C@@H]1O (stereo partly drawn) [D-Arabinose] has what Δ Tm?
Result: 0.05

Problem: Entry NCCCC(=O)O [γ-amino butyric acid] has what Δ Tm?
Result: 0.05

Problem: Entry O=C(O)CCCCCCCCC(=O)O [Sebacic Acid] has what Δ Tm?
Result: 0.48

Problem: Entry C=C(CC(=O)O)C(=O)O [Itaconic Acid] has what Δ Tm?
Result: -0.05

Problem: Entry N[C@@H](Cc1c[nH]cn1)C(=O)O [L-Histidine] has what Δ Tm?
Result: 0.00

Problem: Entry CC(N)=O [Acetamide] has what Δ Tm?
Result: 0.00

Problem: Entry CC(=O)N[C@H]1C(O)O[C@H](CO)[C@H](O)[C@@H]1O (stereo partly drawn) [N-Acetyl-D-Galactosamine] has what Δ Tm?
Result: 0.00

Problem: Entry OC[C@@H](O)[C@@H](O[C@H]1O[C@H](CO)[C@@H](O)[C@H](O)[C@H]1O)[C@H](O)[C@@H](O)CO [Maltitol] has what Δ Tm?
Result: 0.05

Problem: Entry O=CC[C@H](O)[C@H](O)CO [2-Deoxy-D-Ribose] has what Δ Tm?
Result: 0.66

Problem: Entry C/C(=C/C(=O)O)C(=O)O [Citraconic Acid] has what Δ Tm?
Result: 0.08

Problem: Entry CO[C@@H]1OC[C@@H](O)[C@H](O)[C@H]1O [β-Methyl-D-Xyloside] has what Δ Tm?
Result: 0.10

Problem: Entry O=C(O)[C@@H]1C[C@@H](O)CN1 [Hydroxy-L-Proline] has what Δ Tm?
Result: 0.03

Problem: Entry OC[C@H]1O[C@@H](O)[C@H](O)[C@H](O)[C@@H]1O [β-D-Allose] has what Δ Tm?
Result: 0.08

Problem: Entry OC[C@@H](O)C(O)[C@H](O)CO [D-Arabitol] has what Δ Tm?
Result: 0.00

Problem: Entry O=C(O)c1ccc(O)cc1 [4-Hydroxy Benzoic Acid] has what Δ Tm?
Result: 0.03

Problem: Entry CC(O)(CC(=O)O)C(=O)O (centres unmarked) [Citramalic Acid] has what Δ Tm?
Result: 0.03

Problem: Entry OC[C@@]12OC[C@@H](O1)[C@@H](O)[C@@H](O)[C@@H]2O [Sedoheptulosan] has what Δ Tm?
Result: 0.08

Problem: Entry O=C(O)CC(=O)O [Malonic Acid] has what Δ Tm?
Result: 0.08

Problem: Entry C[C@@H](O)[C@H](O)[C@H](O)[C@@H](O)C=O [D-Fucose] has what Δ Tm?
Result: 0.10

Problem: Entry OC[C@H]1O[C@@H](Oc2ccc(O)cc2)[C@H](O)[C@@H](O)[C@@H]1O [Arbutin] has what Δ Tm?
Result: 0.03

Problem: Entry CC(=O)N[C@@H](CO)[C@@H](O)[C@H](O)[C@H](O)CO [N-Acetyl-D-Glucosaminitol] has what Δ Tm?
Result: 0.08

Problem: Entry OC[C@H]1O[C@@](CO)(O[C@H]2O[C@H](CO)[C@@H](O)[C@H](O)[C@H]2O)[C@@H](O[C@H]2O[C@H](CO)[C@@H](O)[C@H](O)[C@H]2O)[C@@H]1O [D-Melezitose] has what Δ Tm?
Result: 0.03

Problem: Entry NCC(=O)O [Glycine] has what Δ Tm?
Result: 0.05

Problem: Entry NC(=O)CCC(=O)O [Succinamic Acid] has what Δ Tm?
Result: 0.18

Problem: Entry O=C(CO)[C@@H](O[C@H]1O[C@H](CO)[C@@H](O)[C@H](O)[C@H]1O)[C@H](O)[C@H](O)CO [Turanose] has what Δ Tm?
Result: 0.03

Problem: Entry CC[C@H](C)[C@H](N)C(=O)O [L-Isoleucine] has what Δ Tm?
Result: 0.08

Each recorded value in this set is attributed to paper PMC5062169.
